- Tested on: L1210 leukemia ip in BDF1 mice, survival T/C
- Assay: NCI In Vivo Anticancer Drug Screen. Data for tumor model L1210 Leukemia (intraperitoneal) in B6D2F1 (BDF1) mice
- Assay setup: endpoint: mean survival time; dose: 100.0 mg/kg/injection; schedule: Q01DX009 (ip); vehicle: Klucel (hydroxypropylcellulose) (HPC); higher = longer survival
Toxic doses and inconclusive results are not listed.
Would you kindly list T/C for each of these compounds?

With L1210 leukemia ip in BDF1 mice, survival T/C as the test system, `O=C(Nc1ccc(CCO)cc1)c1cccc(F)c1` showed T/C of 96 % of control

With L1210 leukemia ip in BDF1 mice, survival T/C as the test system, `NC(=O)c1ccccc1NC(=O)Nc1ccccc1C(F)(F)F` showed T/C of 98 % of control

With L1210 leukemia ip in BDF1 mice, survival T/C as the test system, `CC(=O)Nc1ccc([I+]c2ccc([N+](=O)[O-])cc2)cc1` showed T/C of 101 % of control

With L1210 leukemia ip in BDF1 mice, survival T/C as the test system, `Cc1cc(C)c(NC(=O)Nc2ccccc2)c(C)c1` showed T/C of 96 % of control

With L1210 leukemia ip in BDF1 mice, survival T/C as the test system, CCCCCCCCCCOC(=O)N1C(=O)NC(=O)C1c1ccccc1 (centres undefined) showed T/C of 104 % of control

With L1210 leukemia ip in BDF1 mice, survival T/C as the test system, `CSc1ccc(NC(=O)Nc2ccc(Cl)cc2[N+](=O)[O-])cc1` showed T/C of 97 % of control

With L1210 leukemia ip in BDF1 mice, survival T/C as the test system, `CCCCOC(=O)CC(=O)OCCCC` showed T/C of 96 % of control

With L1210 leukemia ip in BDF1 mice, survival T/C as the test system, `Cc1cccc(C)c1NC(=O)Nc1cccc(Cl)c1` showed T/C of 93 % of control

With L1210 leukemia ip in BDF1 mice, survival T/C as the test system, O=C(OC1COC(n2c(=O)oc3ccc(F)cc32)C(OC(=O)c2ccccc2)C1OC(=O)c1ccccc1)c1ccccc1 (centres undefined) showed T/C of 94 % of control

With L1210 leukemia ip in BDF1 mice, survival T/C as the test system, `CCOC(=O)c1c[nH]c2c(ccc3cc(OC)ccc32)c1=O` showed T/C of 97 % of control

With L1210 leukemia ip in BDF1 mice, survival T/C as the test system, `CCN(c1ccccc1C)S(=O)(=O)c1ccccc1` showed T/C of 109 % of control

With L1210 leukemia ip in BDF1 mice, survival T/C as the test system, `COc1cccc(/C=C/c2nccc3ccccc23)c1OC` showed T/C of 90 % of control

With L1210 leukemia ip in BDF1 mice, survival T/C as the test system, `Nc1cc([N+](=O)[O-])ccc1Cl` showed T/C of 99 % of control

With L1210 leukemia ip in BDF1 mice, survival T/C as the test system, `Cc1cc([N+](=O)[O-])c(N)c([N+](=O)[O-])c1` showed T/C of 98 % of control

With L1210 leukemia ip in BDF1 mice, survival T/C as the test system, `Cc1cc(OC(=O)Nc2ccc(Cl)c(Cl)c2)ccc1Cl` showed T/C of 102 % of control

With L1210 leukemia ip in BDF1 mice, survival T/C as the test system, `COc1ccc(C)cc1NC(=S)NC(=O)c1cccc2ccccc12` showed T/C of 87 % of control

With L1210 leukemia ip in BDF1 mice, survival T/C as the test system, CCC(Cc1c[nH]c2ccccc12)[N+](=O)[O-] (centres undefined) showed T/C of 104 % of control

With L1210 leukemia ip in BDF1 mice, survival T/C as the test system, `O=C1NNC(=O)NN1` showed T/C of 103 % of control

With L1210 leukemia ip in BDF1 mice, survival T/C as the test system, `S=P(Nc1ccccc1)(Nc1ccccc1)Nc1ccccc1` showed T/C of 98 % of control

With L1210 leukemia ip in BDF1 mice, survival T/C as the test system, Cc1ccc(S(=O)(=O)/N=S(/C)CC/S(C)=N/S(=O)(=O)c2ccc(C)cc2)cc1 (centres undefined) showed T/C of 102 % of control

With L1210 leukemia ip in BDF1 mice, survival T/C as the test system, `CSc1ccc(P(=NS(=O)(=O)c2ccc(C)cc2)(c2ccc(SC)cc2)c2ccc(SC)cc2)cc1` showed T/C of 104 % of control

With L1210 leukemia ip in BDF1 mice, survival T/C as the test system, `O=C(O)c1ccc(NCc2cccc([N+](=O)[O-])c2)cc1` showed T/C of 96 % of control

With L1210 leukemia ip in BDF1 mice, survival T/C as the test system, `CCCCCCCCCCCCCCCCCCNC(=O)Nc1ccc(C(C)C)cc1` showed T/C of 95 % of control

With L1210 leukemia ip in BDF1 mice, survival T/C as the test system, `Cc1ccc([N+](=O)[O-])cc1NC(=O)Nc1ccc(C(=O)O)cc1` showed T/C of 90 % of control

The reported numbers originate from PubChem BioAssay AID248.
